Test: Henry solubility constant Hcp at 298.15 K (mol/(m3 Pa))
Settings: reference: Charles and Destaillats (2005)
measured.parameter: Henry solubility constant Hcp

Request: Note Henry solubility constant Hcp for the compound shown: Clc1ccc(-c2ccc(Cl)c(Cl)c2)cc1Cl [3,3',4,4'-tetrachlorobiphenyl]
Result: 0.029

###

Assay: Henry solubility constant Hcp at 298.15 K (mol/(m3 Pa))
Conditions: reference: Orcutt and Seevers (1937a)
measured.parameter: Henry solubility constant Hcp
The answer should be a number; do not append a unit.

The following compounds have reported results that may help.
> print(dat)
                            compound  obs.value
1  [N-]=[N+]=O [dinitrogen monoxide]    0.00024
2             O=C=O [carbon dioxide]    0.00033
3                                C=C    4.8e-05

Next up:
Request: Note Henry solubility constant Hcp for the compound shown: `O=O`
Result: 1.2e-05

###

Reported Henry solubility constant Hcp values follow for various compounds
Assay: Henry solubility constant Hcp at 298.15 K (mol/(m3 Pa))
Conditions: reference: Ervin et al. (1980)
The answer should be a number; do not append a unit.

> print(dat)
      input.smiles  obs.value
1  ClC(Cl)=C(Cl)Cl    0.00057

Request: Note Henry solubility constant Hcp for the compound shown: `ClC=C(Cl)Cl`
Result: 0.00074

Request: Note Henry solubility constant Hcp for the compound shown: `CCc1ccccc1`
Result: 0.0014

###

Assay: Henry solubility constant Hcp at 298.15 K (mol/(m3 Pa))
Conditions: reference: Alaee et al. (1996)
Reported Henry solubility constant Hcp values follow for various compounds
The answer should be a number; do not append a unit.

The following compounds have reported results that may help.
> print(dat)
                                compound             measured.parameter  obs.value
1                     c1ccccc1 [benzene]  Henry solubility constant Hcp     0.0018
2  c1ccc2c(c1)ccc1ccccc12 [phenanthrene]  Henry solubility constant Hcp       0.21
3      c1ccc2cc3ccccc3cc2c1 [anthracene]  Henry solubility constant Hcp        0.2

Next up:
Request: Note Henry solubility constant Hcp for the compound shown: c1ccc2ccccc2c1 [naphthalene]
Result: 0.023

###

Experiment: Henry solubility constant Hcp at 298.15 K (mol/(m3 Pa))
Details: reference: Wieland et al. (2015)
measured.parameter: Henry solubility constant Hcp
The answer should be a number; do not append a unit.

The following compounds have reported results that may help.
> print(dat)
                                   compound  obs.value
1  C/C=C/C(=O)C1=C(C)C=CCC1(C)C [(E)-β-damascenone]       0.32
2                  Cc1ccco1 [2-methylfuran]     0.0015
3               CC(C)CC=O [3-methylbutanal]      0.024
4  CCc1ncc(C)nc1C [2-ethyl-3,5-dimethylpyrazine]        2.9
5  CCOC(=O)CC(C)C [ethyl 3-methylbutanoate]      0.011

Request: Note Henry solubility constant Hcp for the compound shown: COc1ccccc1O [1-hydroxy-2-methoxybenzene]
Result: 9
